measurement-description: Cytotoxicity of alkyl lipids, neutral red dye uptake (Table 1)
Type: cell-based
run-parameters: human, hep-g2 cells
Some compounds, each annotated with its measured viability at 216 h, 100 µM.
Please state the figure in %; there is no need to write the unit.

# example entries with known answers
CCCCCCCCCCCCCCCCSCC(C[N+](C)(C)CCO)OC (racemic)    24
CCCCCCCCCCCCCCCCCC(=O)NCC(COP(=O)([O-])OCC[N+](C)(C)C)OCC (racemic)    71
CCCCCCCCCCCCCCCCCC(=O)NCC(COP(=O)([O-])OCC[N+](C)(C)C)OC (centres unmarked)    95
Nc1ccn([C@H]2CC[C@@H](CO)O2)c(=O)n1 [2',3'-dideoxycytidine, 2', 3'-dideoxycytidine, reference compound]    35

Then this compound:
Query block: I have this compound here, CCCCCCCCCCCCCCCC(=O)NCC(COP(=O)([O-])OCC[N+](C)(C)C)OC (centres unmarked) , and I need its recorded viability at 216 h, 100 µM.
Result block: 24

---

measurement-description: Cytotoxicity in HBV persistently infected human HEP G2 cells, neutral red dye uptake (Table 5)
Assay type: cell-based
run-parameters: human, hep-g2 cells, Trial 3; 100 μM; read-out: % of Control Neutral Red Dye Uptake
Procedure: Initially, evaluations of the alkyl lipids were done to determine whether the compounds were cytotoxic to the cells at concentrations having anti-HBV activity. […] Cell cytotoxicity was quantitated by measuring the average A510. […] An analysis was periormed to determine the cytotoxicity of the following compounds in human HEP-G2 cells persistently infected with HBV: CP-51, CP-49, CP-9, CP-126, lyso PAF and CP-7. […] The absorbance of internalized dye at […] (A510) was used for the quantitative analysis. […]
measure: viability at 216 h, 100 µM (%)
Write the value in % as a bare number.

Query block: viability at 216 h, 100 µM for Nc1ccn([C@H]2CC[C@@H](CO)O2)c(=O)n1 [2',3'-dideoxycytidine, 2', 3'-dideoxycytidine, reference compound] ?
Result block: 99

---

Reported cytotoxicity at 216 h, 30 µM values are given for each entry in this list.
measurement-description: Cytotoxicity of alkyl lipids, neutral red dye uptake (Table 1)
Assay type: cell-based
run-parameters: human, hep-g2 cells
Answer in %, number only, no unit symbol.

CCCCCCCCCCCCCCCCSCC(C[N+](C)(C)CCO)OC (racemic) [CP-7]    33

Query block: Item CCCCCCCCCCCCCCCCCC(=O)NCC(COP(=O)([O-])OCC[N+](C)(C)C)OCC (racemic) [CP-51] has what recorded cytotoxicity at 216 h, 30 µM?
Result block: 4

Query block: Any idea what cytotoxicity at 216 h, 30 µM was measured for CCCCCCCCCCCCCCCCCC(=O)NCC(COP(=O)([O-])OCC[N+](C)(C)C)OC (stereo not shown) [CP-50] ?
Result block: 0

Query block: Given CCCCCCCCCCCCCCCC(=O)NCC(COP(=O)([O-])OCC[N+](C)(C)C)OC (stereo not shown) [CP-48] , state its recorded cytotoxicity at 216 h, 30 µM.
Result block: 39

---

List of viability at 216 h, 3 µM values.
measurement-description: Cytotoxicity in HBV persistently infected human HEP G2 cells, neutral red dye uptake (Table 5)
Type: cell-based
run-parameters: human, hep-g2 cells, Trial 2; 3 μM; read-out: % of Control Neutral Red Dye Uptake
Protocol: Initially, evaluations of the alkyl lipids were done to determine whether the compounds were cytotoxic to the cells at concentrations having anti-HBV activity. […] Cell cytotoxicity was quantitated by measuring the average A510. […] An analysis was periormed to determine the cytotoxicity of the following compounds in human HEP-G2 cells persistently infected with HBV: CP-51, CP-49, CP-9, CP-126, lyso PAF and CP-7. […] The absorbance of internalized dye at […] (A510) was used for the quantitative analysis. […]
Provide the reading as a plain figure in %.

CCCCCCCCCCCCCCCCCCOCC(O)COP(=O)([O-])OCC[N+](C)(C)C (racemic) [lyso PAF]    98

Please examine the following record next.
Query block: Using the record for CCCCCCCCCCCCOCC(COP(=O)(O)OC[C@H]1O[C@@H](n2cc(C)c(=O)[nH]c2=O)C[C@@H]1N=[N+]=[N-])OCCCCCCCCCC (mixture of isomers) [CP-126] , report its viability at 216 h, 3 µM.
Result block: 100

---

measurement-description: Cytotoxicity in HBV persistently infected human HEP G2 cells, neutral red dye uptake (Table 5)
Format: cell-based
run-parameters: human, hep-g2 cells, Trial 3; 10 μM; read-out: % of Control Neutral Red Dye Uptake
Description: Initially, evaluations of the alkyl lipids were done to determine whether the compounds were cytotoxic to the cells at concentrations having anti-HBV activity. […] Cell cytotoxicity was quantitated by measuring the average A510. […] An analysis was periormed to determine the cytotoxicity of the following compounds in human HEP-G2 cells persistently infected with HBV: CP-51, CP-49, CP-9, CP-126, lyso PAF and CP-7. […] The absorbance of internalized dye at […] (A510) was used for the quantitative analysis. […]
measure: viability at 216 h, 10 µM (%)
Lab book: enter the figure in %, no units written.

Query block: # get_value(readout='viability at 216 h, 10 µM', item= Nc1ccn([C@H]2CC[C@@H](CO)O2)c(=O)n1 [2',3'-dideoxycytidine, 2', 3'-dideoxycytidine, reference compound] )
Result block: 100

---

measurement-description: Cytotoxicity of alkyl lipids, neutral red dye uptake (Table 1)
Assay type: cell-based
run-parameters: human, hep-g2 cells
Listing: cytotoxicity at 216 h, 100 µM of selected compounds
Output spec: scalar in %, unitless text.

Query block: What does the record list as cytotoxicity at 216 h, 100 µM for CCCCCCCCCCCCCCCCCC(=O)NCC(COP(=O)([O-])OCC[N+](C)(C)C)OCC (racemic) [CP-51] ?
Result block: 29

Query block: What does the data say about its cytotoxicity at 216 h, 100 µM? Entry: CCCCCCCCCCCCCCCCCC(=O)NCC(COP(=O)([O-])OCC[N+](C)(C)C)OC (centres unmarked) [CP-50]
Result block: 5

---

measurement-description: Cytotoxicity in HBV persistently infected human HEP G2 cells, neutral red dye uptake (Table 5)
Type: cell-based
run-parameters: human, hep-g2 cells, Trial 1; 300 μM; read-out: % of Control Neutral Red Dye Uptake
measure: viability at 216 h, 300 µM (%)
Numeric answer only, unit % assumed.

Query block: Query: viability at 216 h, 300 µM; subject: Nc1ccn([C@H]2CC[C@@H](CO)O2)c(=O)n1 [2',3'-dideoxycytidine, 2', 3'-dideoxycytidine, reference compound]
Result block: 34

---

measurement-description: Cytotoxicity of alkyl lipids, neutral red dye uptake (Table 1)
Assay type: cell-based
run-parameters: human, hep-g2 cells
measure: viability at 216 h, 3 µM (%)
Output spec: scalar in %, unitless text.

CCCCCCCCCCCCCCCCCC(=O)NCC(COP(=O)([O-])OCC[N+](C)(C)C)OC (centres unmarked)    97
Nc1ccn([C@H]2CC[C@@H](CO)O2)c(=O)n1 [2',3'-dideoxycytidine, 2', 3'-dideoxycytidine, reference compound]    100
CCCCCCCCCCCCCCCCCC(=O)NCC(COP(=O)([O-])OCC[N+](C)(C)C)OCC (racemic)    101
CCCCCCCCCCCCCCCC(=O)NCC(COP(=O)([O-])OCC[N+](C)(C)C)OC (centres unmarked)    102

Could you now consider this next compound?
Query block: Entry CCCCCCCCCCCCCCCCSCC(C[N+](C)(C)CCO)OC (racemic) has what viability at 216 h, 3 µM?
Result block: 98

---

Below: a set of entries, each annotated with reported viability at 216 h, 100 µM.
measurement-description: Cytotoxicity in HBV persistently infected human HEP G2 cells, neutral red dye uptake (Table 5)
Assay type: cell-based
run-parameters: human, hep-g2 cells, Trial 2; 100 μM; read-out: % of Control Neutral Red Dye Uptake
The answer is to be given in %; state only the numeric part.

CCCCCCCCCCCCOCC(COP(=O)(O)OC[C@H]1O[C@@H](n2cc(C)c(=O)[nH]c2=O)C[C@@H]1N=[N+]=[N-])OCCCCCCCCCC (mixture of isomers) [CP-126]    20

Please examine the following record next.
Query block: Would you mind telling me what viability at 216 h, 100 µM value was observed for CCCCCCCCCCCCCCCCCCOCC(O)COP(=O)([O-])OCC[N+](C)(C)C (racemic) [lyso PAF] ?
Result block: 40

---

measurement-description: Cytotoxicity in HBV persistently infected human HEP G2 cells, neutral red dye uptake (Table 5)
Format: cell-based
run-parameters: human, hep-g2 cells, Trial 2; 300 μM; read-out: % of Control Neutral Red Dye Uptake
measure: viability at 216 h, 300 µM (%)
Please give a number only; it is taken to be in %.

Query block: Query (compound): Nc1ccn([C@H]2CC[C@@H](CO)O2)c(=O)n1 [2',3'-dideoxycytidine, 2', 3'-dideoxycytidine, reference compound] ; field requested: viability at 216 h, 300 µM
Result block: 40
